Test system: K24384-001-R-PDC complex spheroids, viability;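 also: spheroids exposed to compounds for seven days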
Experiment: Anticancer human tumor K24384-001-R-PDC patient-derived pancreatic adenocarcinoma cell line growth inhibition [GQUAD]
Conditions: second compound 0.1 µM; first compound 10 µM; hits give low values
outcome measure: viability, T/C (%)
Number in %, nothing else.

Q: Supply measured viability, T/C of CC1COCCN1c1cc(-c2ccnn2C)c2ccnc(-c3ccn[nH]3)c2n1 (stereo unspecified) + CN(C)c1ccc(Nc2c3ccc(NC(=O)CCN4CCCC4)cc3nc3cc(NC(=O)CCN4CCCC4)ccc23)cc1 in your reply.
A: 31.9

Q: Supply measured viability, T/C of O=c1[nH]cc(F)c(=O)[nH]1 + Cc1[nH]c2ccc(F)cc2c1-c1nc2c3cccnc3c3ncccc3c2[nH]1 in your reply.
A: 39.6

Q: Supply measured viability, T/C of CC1COCCN1c1cc(-c2ccnn2C)c2ccnc(-c3ccn[nH]3)c2n1 (stereo unspecified) + Cc1cnc(CNC(=O)c2c(=O)c3ccc(N4CCCN(C)CC4)nc3n3c2sc2ccccc23)cn1 in your reply.
A: 24.4

Q: Supply measured viability, T/C of COc1cc(C2c3cc4c(cc3C(OC3OC5COC(C)OC5C(O)C3O)C3COC(=O)C23)OCO4)cc(OC)c1O (stereo unspecified) + Cc1cnc(CNC(=O)c2c(=O)c3ccc(N4CCCN(C)CC4)nc3n3c2sc2ccccc23)cn1 in your reply.
A: 34.1

Q: Supply measured viability, T/C of COc1ccc([C@@H](O)c2cc(-c3ncnc4cc(N5CCOCC5)ccc34)c(F)cc2Cl)nn1 + Cc1[nH]c2ccc(F)cc2c1-c1nc2c3cccnc3c3ncccc3c2[nH]1 in your reply.
A: 31.9

Q: Supply measured viability, T/C of O=C(c1cc(Cc2n[nH]c(=O)c3ccccc23)ccc1F)N1CCN(C(=O)C2CC2)CC1 + CN(C)c1ccc(Nc2c3ccc(NC(=O)CCN4CCCC4)cc3nc3cc(NC(=O)CCN4CCCC4)ccc23)cc1 in your reply.
A: 76.3

Q: Supply measured viability, T/C of C#Cc1c(F)ccc2cc(O)cc(-c3ncc4c(N5CC6CCC(C5)N6)nc(OCC56CCCN5CC(F)C6)nc4c3F)c12 (stereo unspecified) + Cc1cnc(CNC(=O)c2c(=O)c3ccc(N4CCCN(C)CC4)nc3n3c2sc2ccccc23)cn1 in your reply.
A: 20.4

Q: Supply measured viability, T/C of C=CCn1c(=O)c2cnc(Nc3ccc(N4CCN(C)CC4)cc3)nc2n1-c1cccc(C(C)(C)O)n1 + Cc1[nH]c2ccc(F)cc2c1-c1nc2c3cccnc3c3ncccc3c2[nH]1 in your reply.
A: 18.8

Q: Supply measured viability, T/C of C=CCn1c(=O)c2cnc(Nc3ccc(N4CCN(C)CC4)cc3)nc2n1-c1cccc(C(C)(C)O)n1 + Cc1cnc(CNC(=O)c2c(=O)c3ccc(N4CCCN(C)CC4)nc3n3c2sc2ccccc23)cn1 in your reply.
A: 18.1

Q: Supply measured viability, T/C of Nc1ccn(C2OC(CO)C(O)C2(F)F)c(=O)n1 (stereo unspecified) + Cc1cnc(CNC(=O)c2c(=O)c3ccc(N4CCCN(C)CC4)nc3n3c2sc2ccccc23)cn1 in your reply.
A: 20.9

Q: Supply measured viability, T/C of CC(C)(O)C1CCC(Nc2ccc3ncc(-c4cccc(C(F)(F)F)c4)n3n2)CC1 (stereo unspecified) + Cc1[nH]c2ccc(F)cc2c1-c1nc2c3cccnc3c3ncccc3c2[nH]1 in your reply.
A: 33.2

Q: Supply measured viability, T/C of CCCS(=O)(=O)Nc1ccc(F)c(C(=O)c2c[nH]c3ncc(-c4ccc(Cl)cc4)cc23)c1F + Cc1[nH]c2ccc(F)cc2c1-c1nc2c3cccnc3c3ncccc3c2[nH]1 in your reply.
A: 41

Q: Supply measured viability, T/C of COc1ccc([C@@H](O)c2cc(-c3ncnc4cc(N5CCOCC5)ccc34)c(F)cc2Cl)nn1 + CN(C)c1ccc(Nc2c3ccc(NC(=O)CCN4CCCC4)cc3nc3cc(NC(=O)CCN4CCCC4)ccc23)cc1 in your reply.
A: 34.9

Q: Supply measured viability, T/C of CCCS(=O)(=O)Nc1ccc(F)c(C(=O)c2c[nH]c3ncc(-c4ccc(Cl)cc4)cc23)c1F + Cc1cnc(CNC(=O)c2c(=O)c3ccc(N4CCCN(C)CC4)nc3n3c2sc2ccccc23)cn1 in your reply.
A: 33.5

Q: Supply measured viability, T/C of CC1COCCN1c1cc(C2(O)CC3CCC(C2)O3)c2cnn(-c3ccn[nH]3)c2n1 (stereo unspecified) + CN(C)c1ccc(Nc2c3ccc(NC(=O)CCN4CCCC4)cc3nc3cc(NC(=O)CCN4CCCC4)ccc23)cc1 in your reply.
A: 15

Q: Supply measured viability, T/C of Nc1ccn(C2OC(CO)C(O)C2(F)F)c(=O)n1 (stereo unspecified) + CN(C)c1ccc(Nc2c3ccc(NC(=O)CCN4CCCC4)cc3nc3cc(NC(=O)CCN4CCCC4)ccc23)cc1 in your reply.
A: 19.8

Q: Supply measured viability, T/C of CC(=O)O[C@H]1C(=O)[C@@]2(C)[C@H]([C@H](OC(=O)c3ccccc3)[C@]3(O)C[C@H](OC(=O)[C@H](O)[C@@H](NC(=O)c4ccccc4)c4ccccc4)C(C)=C1C3(C)C)[C@]1(OC(C)=O)CO[C@@H]1C[C@@H]2O + CN(C)c1ccc(Nc2c3ccc(NC(=O)CCN4CCCC4)cc3nc3cc(NC(=O)CCN4CCCC4)ccc23)cc1 in your reply.
A: 25.7

Q: Supply measured viability, T/C of CC1COCCN1c1cc(C2(O)CC3CCC(C2)O3)c2cnn(-c3ccn[nH]3)c2n1 (stereo unspecified) + Cc1cnc(CNC(=O)c2c(=O)c3ccc(N4CCCN(C)CC4)nc3n3c2sc2ccccc23)cn1 in your reply.
A: 10.8

Q: Supply measured viability, T/C of CC1COCCN1c1cc(-c2ccnn2C)c2ccnc(-c3ccn[nH]3)c2n1 (stereo unspecified) + Cc1[nH]c2ccc(F)cc2c1-c1nc2c3cccnc3c3ncccc3c2[nH]1 in your reply.
A: 36.5

Q: Supply measured viability, T/C of CC(C)(O)C1CCC(Nc2ccc3ncc(-c4cccc(C(F)(F)F)c4)n3n2)CC1 (stereo unspecified) + Cc1cnc(CNC(=O)c2c(=O)c3ccc(N4CCCN(C)CC4)nc3n3c2sc2ccccc23)cn1 in your reply.
A: 28.3

Q: Supply measured viability, T/C of COc1ncnc(C2CC2)c1-c1ncc2cnn(Cc3ccc(-c4nc(C(F)(F)F)cn4C(C)C)cc3)c2n1 + Cc1cnc(CNC(=O)c2c(=O)c3ccc(N4CCCN(C)CC4)nc3n3c2sc2ccccc23)cn1 in your reply.
A: 79.5
